B1: Ventral anterior homeobox 1, residues 102 to 157; numbered along this chain, Q5SQQ9 (parent)
chain: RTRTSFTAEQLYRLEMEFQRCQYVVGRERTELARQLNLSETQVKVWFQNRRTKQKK

# Variants of: B1
# test method notes: abundance fitness (aPCA) (normalised: wild type 0, dead -1); higher = more abundant; growth selection in yeast, the domain comes from the species named
# experimental context: Homo sapiens
Quick list: abundance fitness per entry.
property name: abundance fitness

- mutation label: "E40D"
  property name: "abundance fitness"
  reported value: -0.128
- mutation label: "C21K"
  property name: "abundance fitness"
  reported value: -0.169
- mutation label: "F47Q"
  property name: "abundance fitness"
  reported value: -0.767
- mutation label: "N49P"
  property name: "abundance fitness"
  reported value: -0.929
- mutation label: "V24A"
  property name: "abundance fitness"
  reported value: -0.12
- mutation label: "T4G"
  property name: "abundance fitness"
  reported value: -0.269
- mutation label: "V24W"
  property name: "abundance fitness"
  reported value: -0.416
- mutation label: "S39G"
  property name: "abundance fitness"
  reported value: -0.375
- mutation label: "E9T"
  property name: "abundance fitness"
  reported value: -0.464
